meta.source: the supplement of paper PMC10567573

Items are presented alongside their recorded protein stability index.
B1: VTI1B (parent)
chain: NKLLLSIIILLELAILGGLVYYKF

variants of: B1; assay: protein stability index of a GFP-peptide fusion (GPS, HEK-293T) (PSI 1-6); higher = more stable; conditions: c terminus: a fixed tail appended;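 further: lentivirally expressed fusions sorted by FACS into six bins by GFP to DsRed ratio, PSI derived from sequencing read proportions per bin multiplied by bin number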

Consider the following illustrative entries.
L4G ... 2.29
E12D ... 2.99
L13Q ... 2.92

Determine its reported protein stability index: V20S 2.32

Determine its reported protein stability index: L4N 2.28

Determine its reported protein stability index: F24R 3.27

Determine its reported protein stability index: K23A 2.52

Determine its reported protein stability index: L10I 2.55
